# Target system: Epidermal growth factor receptor [L858R] (Homo sapiens, UniProt P00533, L858R)
# Sequence (P00533 25-1210 L858R limits assumed): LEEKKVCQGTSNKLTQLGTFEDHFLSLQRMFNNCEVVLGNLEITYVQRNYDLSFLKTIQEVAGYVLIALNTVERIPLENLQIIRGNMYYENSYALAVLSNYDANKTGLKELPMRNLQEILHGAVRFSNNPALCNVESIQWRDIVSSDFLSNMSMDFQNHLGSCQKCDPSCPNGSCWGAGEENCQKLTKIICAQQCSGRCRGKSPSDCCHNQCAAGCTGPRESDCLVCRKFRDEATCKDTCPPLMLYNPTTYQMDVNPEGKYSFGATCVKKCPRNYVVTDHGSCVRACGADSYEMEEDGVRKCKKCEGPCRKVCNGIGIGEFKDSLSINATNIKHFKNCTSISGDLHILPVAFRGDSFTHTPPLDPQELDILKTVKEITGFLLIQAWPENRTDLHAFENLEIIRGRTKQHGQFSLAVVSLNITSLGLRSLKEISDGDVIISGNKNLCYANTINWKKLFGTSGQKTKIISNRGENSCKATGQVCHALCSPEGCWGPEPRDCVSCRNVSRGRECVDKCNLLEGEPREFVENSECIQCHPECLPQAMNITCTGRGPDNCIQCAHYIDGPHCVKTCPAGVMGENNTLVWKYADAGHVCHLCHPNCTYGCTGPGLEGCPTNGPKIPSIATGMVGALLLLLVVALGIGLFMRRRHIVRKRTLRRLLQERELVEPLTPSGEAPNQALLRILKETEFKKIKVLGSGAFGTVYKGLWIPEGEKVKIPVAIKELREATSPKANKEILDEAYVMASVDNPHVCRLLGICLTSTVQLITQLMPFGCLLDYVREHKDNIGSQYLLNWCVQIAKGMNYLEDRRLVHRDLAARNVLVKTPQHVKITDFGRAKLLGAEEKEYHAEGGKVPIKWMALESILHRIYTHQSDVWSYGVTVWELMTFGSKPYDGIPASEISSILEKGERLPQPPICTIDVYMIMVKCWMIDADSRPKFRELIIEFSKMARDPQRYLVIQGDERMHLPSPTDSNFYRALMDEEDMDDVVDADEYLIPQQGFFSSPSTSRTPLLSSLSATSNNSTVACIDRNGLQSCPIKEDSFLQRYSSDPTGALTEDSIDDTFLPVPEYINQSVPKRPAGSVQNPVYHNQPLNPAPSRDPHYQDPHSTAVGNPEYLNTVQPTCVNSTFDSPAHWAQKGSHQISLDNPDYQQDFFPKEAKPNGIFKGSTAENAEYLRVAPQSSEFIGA
# Run description: Biochemical Assay
Each record here notes measured IC50.
Numbers only here, please. The scale is nM.

Solved entries (count: 2):
                            chemical_smiles  assay_readout  unit  numeric_result
0  CN1CCC(NC(=O)c2ccc3c(c2)OCCOCc2c(cnn2C)-c2cc4c(n[nH]c4cn2)/C=C/3)CC1           IC50    nM            40.7
1  CCNC(=O)c1ccc2c(c1)/C=C/c1n[nH]c3cnc(cc13)-c1cnn(C)c1COCCO2           IC50    nM              32

# input Query IC50 on Epidermal growth factor receptor [L858R] (Homo sapiens, UniProt P00533, L858R) for `Cc1nc2cc3c(n[nH]c13)/C=C/c1cc(F)ccc1OCCCOc1c-2cnn1C`
# output 1110

# input Also `Cn1ncc2c1OCCCOc1ccc(C(=O)N3CCCC3)cc1/C=C/c1n[nH]c3cnc-2cc13` , if possible.
# output 23.7

# input What would you report for `CN1CCC(NC(=O)c2ccc3c(c2)/C=C/c2n[nH]c4cnc(cc24)-c2cnn(C)c2OCCCO3)CC1` ?
# output 4.5

# input What about `CCc1nn(C)c2c1/C=C/c1n[nH]c3cnc(cc13)-c1cc(F)ccc1OCCN(C)C2=O` ?
# output 136

# input Now consider `Cn1ncc2c1COCCOc1ccc(C(=O)O)cc1/C=C/c1n[nH]c3cnc-2cc13` .
# output 66.4

---

# Target system: Epidermal growth factor receptor [T790M,L858R] (Homo sapiens, UniProt P00533, L858R/T790M)
# Sequence (P00533 25-1210 T790M/L858R limits assumed): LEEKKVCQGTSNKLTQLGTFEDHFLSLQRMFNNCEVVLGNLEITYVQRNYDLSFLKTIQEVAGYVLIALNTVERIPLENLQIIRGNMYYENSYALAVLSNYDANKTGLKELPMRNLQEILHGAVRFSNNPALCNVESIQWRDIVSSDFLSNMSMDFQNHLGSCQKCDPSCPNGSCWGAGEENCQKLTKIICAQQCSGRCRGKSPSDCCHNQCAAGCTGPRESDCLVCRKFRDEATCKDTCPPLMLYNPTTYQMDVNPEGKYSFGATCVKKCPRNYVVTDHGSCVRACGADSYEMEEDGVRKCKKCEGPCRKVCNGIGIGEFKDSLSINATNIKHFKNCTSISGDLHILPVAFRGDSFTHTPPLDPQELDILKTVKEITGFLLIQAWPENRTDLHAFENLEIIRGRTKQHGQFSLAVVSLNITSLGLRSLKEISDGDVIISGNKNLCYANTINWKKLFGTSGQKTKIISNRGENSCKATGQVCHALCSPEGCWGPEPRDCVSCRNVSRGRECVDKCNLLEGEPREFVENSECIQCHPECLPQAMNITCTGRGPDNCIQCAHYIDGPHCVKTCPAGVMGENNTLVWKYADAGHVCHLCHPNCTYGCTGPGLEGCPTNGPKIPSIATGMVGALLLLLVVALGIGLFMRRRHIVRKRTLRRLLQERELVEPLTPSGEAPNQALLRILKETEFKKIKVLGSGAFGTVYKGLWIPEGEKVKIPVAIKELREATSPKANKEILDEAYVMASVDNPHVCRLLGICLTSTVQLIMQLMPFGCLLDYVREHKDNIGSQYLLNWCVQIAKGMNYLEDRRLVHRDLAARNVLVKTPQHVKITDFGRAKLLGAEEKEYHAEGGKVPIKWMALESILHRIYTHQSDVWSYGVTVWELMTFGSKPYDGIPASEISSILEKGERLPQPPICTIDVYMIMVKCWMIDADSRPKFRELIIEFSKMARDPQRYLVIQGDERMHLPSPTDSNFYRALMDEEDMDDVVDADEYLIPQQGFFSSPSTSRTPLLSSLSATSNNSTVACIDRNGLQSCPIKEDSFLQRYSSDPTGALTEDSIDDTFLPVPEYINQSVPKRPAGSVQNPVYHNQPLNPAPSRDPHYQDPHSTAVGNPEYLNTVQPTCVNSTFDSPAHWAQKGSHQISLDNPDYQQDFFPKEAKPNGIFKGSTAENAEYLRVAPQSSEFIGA
# Run description: Biochemical Assay
# IC50 values compiled below
Your answer should be a plain number; it is taken to be in µM.

Some compounds with recorded IC50:
In [3]: df
Out[3]:
                                   compound                             target_system  assay_readout  numeric_result
0  CCc1nn(C)c2c1/C=C/c1n[nH]c3cnc(cc13)-c1cc(F)ccc1OCCN(C)C2=O  Epidermal growth factor receptor [T790M,L858R] (Homo sapiens, UniProt P00533, L858R/T790M)           IC50          0.0363
1  Cn1ncc2c1COCCOc1ccccc1/C=C/c1n[nH]c3cnc-2cc13  Epidermal growth factor receptor [T790M,L858R] (Homo sapiens, UniProt P00533, L858R/T790M)           IC50          0.0058
2  Cc1ccc2c(n1)/C=C/c1n[nH]c3cnc(nc13)-c1cnn(C)c1C(C)OCCO2 (stereo not given)  Epidermal growth factor receptor [T790M,L858R] (Homo sapiens, UniProt P00533, L858R/T790M)           IC50          0.0234

# input Using the record for `Cn1ncc2c1COCCOc1ccccc1/C=C/c1n[nH]c3cnc-2nc13` , report its IC50.
# output 0.168

---

Overview of recorded pIC50 for various compounds
# Target system: Epidermal growth factor receptor [L858R] (Homo sapiens, UniProt P00533, L858R)
# Run description: Biochemical Assay
// pIC50 here means minus log10 of the molar concentration (mol/L)

In [3]: df
Out[3]:
                            chemical_smiles                             target_system  assay_readout  numeric_result
0  CN(C)CCCNC(=O)c1ccc2c(c1)/C=C/c1n[nH]c3cnc(cc13)-c1cnn(C)c1OCCCO2  Epidermal growth factor receptor [L858R] (Homo sapiens, UniProt P00533, L858R)          pIC50            8.66
1  CN(C)CCCNC(=O)c1ccc2c(c1)/C=C/c1n[nH]c3cnc(cc13)-c1cnn(C)c1COCCO2  Epidermal growth factor receptor [L858R] (Homo sapiens, UniProt P00533, L858R)          pIC50            7.55
2  CCNC(=O)c1ccc2c(c1)OCCOCc1c(cnn1C)-c1cc3c(n[nH]c3cn1)/C=C/2  Epidermal growth factor receptor [L858R] (Homo sapiens, UniProt P00533, L858R)          pIC50            6.36

# input What value of measured pIC50 is listed for `CN1CC[C@@H](NC(=O)c2ccc3c(c2)OCCCOc2c(cnn2C)-c2cc4c(n[nH]c4cn2)/C=C/3)C1` ?
# output 8.27

src = BindingDB's records for patent US20240182487
